molecular target: Metallo-β-lactamase encoded by plasmid pMS350 (Serratia marcescens, UniProt P52699); assay: β-Lactamase inhibition test (Nitrocefin substrate); conditions: Nitrocefin 37.5 µg/ml, 30°C for 15 minutes, Zn2+ 100 µM, MOPS buffer
Sequence (P52699 19-246): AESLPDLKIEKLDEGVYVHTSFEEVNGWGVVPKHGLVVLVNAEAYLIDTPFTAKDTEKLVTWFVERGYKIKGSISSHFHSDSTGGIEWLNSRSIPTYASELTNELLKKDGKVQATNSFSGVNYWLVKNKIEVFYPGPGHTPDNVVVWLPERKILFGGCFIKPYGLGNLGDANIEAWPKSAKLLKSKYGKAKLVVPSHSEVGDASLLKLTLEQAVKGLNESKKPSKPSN
pIC50: −log10 of the molar value.
Result type: pIC50

Form: Entry = C=CCOC(=O)N(C)Cc1ccc([C@H]2C[C@H](SC(C)=O)CN2C(=O)OCC=C)cc1 [Compound of Referential. Ex. 1] | System = Metallo-β-lactamase encoded by plasmid pMS350 (Serratia marcescens, UniProt P52699) | pIC50 = ____ > 7.00

// data source = patent EP1048669A1
